property_measured: melting point

Sample answers from the record:
>>> endpoint_result("O=C(O)c1nc2cc(Oc3cccc([N+](=O)[O-])c3)c([N+](=O)[O-])cc2[nH]c1=O")
"198 to 200 °C (dec.)"
>>> endpoint_result("COc1ccc(NC(=O)OCc2cn(-c3cc4nc(C(=O)[O-])c(=O)[nH]c4cc3[N+](=O)[O-])cn2)cc1.[Na+] [Example 108]")
"265 to 267 °C (dec.)"
>>> endpoint_result("O=C(Nc1ccc(Br)cc1)Nc1cn(-c2cc3nc(C(=O)O)c(=O)[nH]c3cc2[N+](=O)[O-])ccc1=O [Example 128]")
"252 to 254 °C (dec.)"
>>> endpoint_result("O=C(O)c1nc2cc(C(F)(F)F)c([N+](=O)[O-])cc2[nH]c1=O [Example 163]")
"213 to 215 °C (dec.)"
>>> endpoint_result("O=C(Nc1ccccc1)OCc1cn(-c2cc3nc(C(=O)O)c(=O)[nH]c3cc2[N+](=O)[O-])ccc1=O [Example 121]")
"230 to 232 °C (dec.)"
>>> endpoint_result("Nc1cc2nc(C(=O)O)c(=O)[nH]c2cc1[N+](=O)[O-] [Example 157]")
"300 °C"

Noted for O=C(O)c1nc2cc(-n3ccc(=O)cc3)c([N+](=O)[O-])cc2[nH]c1=O [Example 37] : its melting point reads 283 to 285 °C

# melting point of O=C(O)Cc1cn(-c2cc3nc(C(=O)O)c(=O)[nH]c3cc2[N+](=O)[O-])cn1 [Example 303] = > 300 °C

Kindly note the recorded melting point for NC(=O)c1nc2cc(F)c([N+](=O)[O-])cc2[nH]c1=O [Example 69] , which is > 300 °C

The recorded melting point for Nc1cn(-c2cc3nc(C(=O)O)c(=O)[nH]c3cc2[N+](=O)[O-])ccc1=O [Example 142] is > 300 °C

The measured melting point associated with O=C(Cc1ccc(Br)cc1)Nc1cn(-c2cc3nc(C(=O)O)c(=O)[nH]c3cc2[N+](=O)[O-])ccc1=O [Example 136] reads 240 to 242 °C (dec.)

====

- test_target: AMPA receptor
- assay_remarks: Binding experiment to AMPA receptor ([3H]-AMPA displacement, crude synaptosome membrane preparations)
- Parameters: species or system rats
- settings: crude synaptosome membranes from rat cerebral cortex; [3H]-AMPA 5 nM; potassium thiocyanate 100 mM; 30 minutes at 0° C.; Ki converted from IC50
Labels assigned by Ki range: lower range (below 300 nM), middle range (300 nM to below 900 nM), upper range (900 nM or more)

Worked examples, 8 compounds total:
>>> label("O=C(O)c1nc2cc(Oc3ccccc3)c([N+](=O)[O-])cc2[nH]c1=O")
"middle range"
>>> label("O=C(O)c1nc2cc(-n3ccnc3)c([N+](=O)[O-])cc2[nH]c1=O")
"middle range"
>>> label("O=C(Nc1ccccc1)OCc1cn(-c2cc3nc(C(=O)O)c(=O)[nH]c3cc2[N+](=O)[O-])ccc1=O")
"lower range"
>>> label("O=C(Nc1ccccc1C(F)(F)F)OCc1cn(-c2cc3nc(C(=O)O)c(=O)[nH]c3cc2[N+](=O)[O-])cn1")
"lower range"
>>> label("O=C(O)c1nc2cc(Br)c([N+](=O)[O-])cc2[nH]c1=O")
"middle range"
>>> label("O=C(O)c1nc2cc(N3CCOCC3)c([N+](=O)[O-])cc2[nH]c1=O")
"upper range"
>>> label("Cl.O=C(O)c1nc2cc(Cn3ccnc3)c([N+](=O)[O-])cc2[nH]c1=O [Example 66, Hydrochloride]")
"middle range"
>>> label("O=C(O)c1nc2cc(-n3ccc(=O)cc3)c([N+](=O)[O-])cc2[nH]c1=O")
"middle range"

For Cc1cc2nc(C(=O)O)c(=O)[nH]c2cc1[N+](=O)[O-] , which Ki bin applies?
middle range

Sort O=C(O)c1nc2cc(F)c([N+](=O)[O-])cc2[nH]c1=O into one of the categories.
upper range

Consider O=C(Nc1cccc(Br)c1)OCc1cn(-c2cc3nc(C(=O)O)c(=O)[nH]c3cc2[N+](=O)[O-])ccc1=O . To which Ki class does it belong?
lower range

Hello team, could you let me know which band the following compound falls into: O=C(O)c1nc2cc(Cl)c([N+](=O)[O-])cc2[nH]c1=O
upper range

Assign a bin to O=C(Nc1ccccc1F)OCc1cn(-c2cc3nc(C(=O)O)c(=O)[nH]c3cc2[N+](=O)[O-])cn1
lower range
